// data source = patent US20230272117A1

Kindly supply the reported log10(Kd) values for the records listed here.
target: human ATP Binding Cassette Subfamily C Member 1 (ABCC1) (UniProt P33527 1-1531); test: FACS titration on C6 cells
Hi team, quick reminder: these entries are log10 of Kd (nM).

Data request: What log10(Kd) value was documented for this binder, C1.831 (antibody, V domains shown) VH: EVQLTESGPGLVQPSQTLSLTCTVSGFSLTSNGVSWVRQPPGKGLEWIAAISSGGNIYYNSVLKSRLSISRDTSKSQVFLKMSSVQTEDTAIYFCTRERGWNYPFITNGYYFDYWGQGVMVTVSS VL: EIMLTQSPSLLSASVGDRVTLSCKAGQNINNYLAWYQQKLGEAPKLLIYNANSLQTGIPSRFSGSGSGTDYTLTISSLQPEDVATYFCQQYNSWYTFGAGTKLEIK ?
Data returned: 1.06

Data request: Look up log10(Kd) for this binder: C1.773 (antibody, V domains shown) VH: EIQLAQSGPELVKPGASVKMSCKASGYSFIGYFMNWVKQSHGKSLEWIGRINPYNGDTFYNQKFKGKATLTVDKSSSTAHMELRSLTSEDSALYYCTRSGWGYDVYSFDYWGQGTLVTVSS VL: DIQMTQTPSSLSASLGDRVTISCRASQDISNYLNWYQQKPDGTVKLLIYYTSRLHSGVPSRFSGSGSGTDYSLTISNLEQEDIATYFCQQGNTLPWTFGGGTKLEIK
Data returned: 0.28

Data request: # get_value(readout='log10(Kd)', item= C1.505 (antibody, V domains shown) VH: EVQLTESGPGLVQPSQTLSLTCTVSGFSLTSNGVSWVRLPPGKGLEWIAAISSGGNIYYNSALKSRLSISRDTSKSQVFLKMNSLQTEDTAIYFCTRERGWNYPGITNGYYFDYWGQGASVTVSS VL: DIVLTQSPSLLSASVGDRVILSCKAGQKINNYLAWYQQKLGEAPKLLIYNANSLQTGIPSRFSGSGSGTDYTLTISSLQPEDVATYFCQQYNSWYTFGAGTKLEIK )
Data returned: 1.55

Data request: What value of log10(Kd) has been recorded for this entry: C1.827 (antibody, V domains shown) VH: EVQLVESGPGLVQPSQTLSLTCTVSGFSLTNNGVSWVRQPPGKGLEWIAAISNGGNIYHNSALKSRLSISRNTAKSQVLLKMNSLQTEDTAMYFCARHRGYYGYNWGYFDYWGQGASVTVSS VL: NIQVTQSPSLLSASVGDRVTLSCKGSQNIYNYLAWYQQKLGEAPKLLIYKTNSLQTGIPSRFSGSGSGTDYTLTISSLHSEDLATYYCCQYNNGYTFGAGTKLELK
Data returned: 2.13

Data request: # log10(Kd) lookup, item C1.835 (antibody, V domains shown) VH: EVQLLESGPGLVQPSQTLSLTCTVSGFSLTNNGVSWVRQPPGKGLEWVAAMSSGGNIYYNSAFKSRLSISRHTSKSQVLLKMNSLQTEDTAMYFCARHRGYYGYNWGYFDYWGQGVMVTVSS VL: NIQLTQSPSLLSASVGDRVTLSCKGSQNIYNYLAWYQQKLGEAPKLLIYKTNSLQTDIPSRFSGSGSGTDYTLTISSLHSEDLATYYCCQYNNGYTFGAGTKLELK
Data returned: 2.16
